Listing of entries alongside the reported inhibition.
molecular target: Platelet-derived growth factor receptor alpha (Homo sapiens) (UniProt P16234); settings: at 0.1 µM
Sequence (P16234 whole entry): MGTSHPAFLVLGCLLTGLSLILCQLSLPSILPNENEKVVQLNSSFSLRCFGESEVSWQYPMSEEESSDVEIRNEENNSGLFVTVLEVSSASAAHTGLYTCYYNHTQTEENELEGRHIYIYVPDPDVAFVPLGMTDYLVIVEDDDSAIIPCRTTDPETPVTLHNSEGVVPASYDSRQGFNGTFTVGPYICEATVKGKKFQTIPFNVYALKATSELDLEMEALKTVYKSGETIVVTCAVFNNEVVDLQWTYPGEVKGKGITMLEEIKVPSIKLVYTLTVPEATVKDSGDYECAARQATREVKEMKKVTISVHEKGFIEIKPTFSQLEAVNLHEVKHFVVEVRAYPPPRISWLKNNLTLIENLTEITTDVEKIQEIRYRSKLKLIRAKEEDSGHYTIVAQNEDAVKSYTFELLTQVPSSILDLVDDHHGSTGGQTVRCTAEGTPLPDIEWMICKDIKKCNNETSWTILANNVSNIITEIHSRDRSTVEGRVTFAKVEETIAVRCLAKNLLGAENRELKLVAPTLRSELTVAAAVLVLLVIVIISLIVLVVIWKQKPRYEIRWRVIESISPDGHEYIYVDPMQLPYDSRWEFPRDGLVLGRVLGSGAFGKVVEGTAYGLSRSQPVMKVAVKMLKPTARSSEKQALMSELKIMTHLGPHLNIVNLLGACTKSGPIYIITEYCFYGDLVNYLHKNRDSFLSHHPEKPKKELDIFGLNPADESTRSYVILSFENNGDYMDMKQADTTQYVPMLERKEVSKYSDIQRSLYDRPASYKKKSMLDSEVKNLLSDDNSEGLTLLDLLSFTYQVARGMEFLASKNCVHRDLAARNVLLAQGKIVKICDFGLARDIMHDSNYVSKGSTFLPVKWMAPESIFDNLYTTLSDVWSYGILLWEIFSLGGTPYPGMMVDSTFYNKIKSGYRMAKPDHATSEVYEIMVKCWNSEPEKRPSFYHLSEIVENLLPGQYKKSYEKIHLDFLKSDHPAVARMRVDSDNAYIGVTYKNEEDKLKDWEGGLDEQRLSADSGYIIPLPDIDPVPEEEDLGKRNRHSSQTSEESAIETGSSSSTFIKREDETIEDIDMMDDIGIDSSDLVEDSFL
Description: GSK_PKIS: PDGFRA mean inhibition at 0.1 uM [Nanosyn]

SUBSTANCE_SMILES: CCN1CCC(C(=O)Nc2n[nH]c3nnc(-c4cccc(F)c4F)cc23)CC1
inhibition [%]: 0.87
--
SUBSTANCE_SMILES: N#Cc1cccc(Nc2ncc(-c3ccccc3)o2)c1
inhibition [%]: 5.63
--
SUBSTANCE_SMILES: CS(=O)(=O)CCNCc1ccc(-c2ccc3ncnc(Nc4ccc(OCc5cccc(C(F)(F)F)c5)cc4)c3c2)o1
inhibition [%]: 9.67
--
SUBSTANCE_SMILES: O=C1Nc2ccccc2/C1=C1\CCc2cc(O)ccc21
inhibition [%]: 23
--
SUBSTANCE_SMILES: CS(=O)(=O)CCNCc1ccoc1-c1ccc2ncnc(Nc3ccc(OCc4ccccc4)cc3)c2c1
inhibition [%]: 7.98
--
SUBSTANCE_SMILES: FC(F)(F)CNc1nccc(-c2cnn3ncccc23)n1
inhibition [%]: 0.78
--
SUBSTANCE_SMILES: O=C(Nc1n[nH]c2nnc(-c3cccnc3)cc12)C1CC1
inhibition [%]: -0.04
--
SUBSTANCE_SMILES: CN1CCC(n2cnc(-c3ccc(F)cc3)c2-c2ccnc(NCCO)n2)CC1
inhibition [%]: 13.6
--
SUBSTANCE_SMILES: Cc1ccc(-c2cc3c(NC(=O)C4CC4)ncnc3o2)cc1
inhibition [%]: 13.9
--
SUBSTANCE_SMILES: OCCCNc1nccc(-c2c(-c3ccc(F)cc3)nn3cc(C(F)(F)F)ccc23)n1
inhibition [%]: 10.9
--
SUBSTANCE_SMILES: Cc1nnc(-c2cccc(-c3ccc(C(=O)NCC4CC4)cc3)c2)o1
inhibition [%]: 13.9
--
SUBSTANCE_SMILES: Fc1ccc(Nc2nccc(-c3c(-c4ccc(C(F)(F)F)cc4)nn4ncccc34)n2)cc1F
inhibition [%]: 8.86
